B1: Adenylate kinase, P16304 (parent)
chain: MNLVLMGLPGAGKGTQGERIVEDYGIPHISTGDMFRAAMKEETPLGLEAKSYIDKGELVPDEVTIGIVKERLGKDDCERGFLLDGFPRTVAQAEALEEILEEYGKPIDYVINIEVDKDVLMERLTGRRICSVCGTTYHLVFNPPKTPGICDKDGGELYQRADDNEETVSKRLEVNMKQTQPLLDFYSEKGYLANVNGQQDIQDVYADVKDLLGGLKK

# Variants of: B1
# particulars: Bacillus subtilis (strain 168); pH 7; 20 °C; GdnHCl; CD; Phosphate buffer 10mM; transition: 2; reversible: yes; structure 2EU8; whole UniProt chain shown
Decision: ddG of mutation (higher = less stable) compared against -3 kcal/mol; not below it gives true (1), below it gives false (0).

{"variant.spec": "Q199R Q16L", "cat": "false (0)"}
{"variant.spec": "Q199R G213E", "cat": "true (1)"}
{"variant.spec": "Q199R", "cat": "true (1)"}
{"variant.spec": "Q199R G214R", "cat": "true (1)"}
{"variant.spec": "Q199R T179I", "cat": "true (1)"}
{"variant.spec": "Q199R A193V", "cat": "true (1)"}
